Each recorded value in this set is attributed to patent US20110136880A1.

Listed here are molecules together with their documented inhibition at 1 µM.
Target: pyrene-conjugated actin (Oryctolagus cuniculus)
Construct: purchased Cytoskeleton, Denver, Colo
Test: Pyrene actin polymerization assay
Type: biochemical
Conditions: 1 μM; compared to vehicle control (DMSO); read-out: Actin polymerization inhibition (%) 1 μM

>  <smi>
CO[C@]1([C@@H]2CSC(=O)N2C2CCCC2)C[C@H]2C[C@@H](CC[C@H](C)/C=C\C=C\CC/C(C)=C\C(=O)O2)O1

>  <inhibition at 1 µM (%)>
49

$$$$
>  <smi>
C/C1=C/C(=O)O[C@@H]2C[C@@H](CC[C@H](C)/C=C\C=C\CC1)O[C@@](OC(=O)c1ccccc1)([C@@H]1CSC(=O)N1)C2

>  <inhibition at 1 µM (%)>
67

$$$$
>  <smi>
CO[C@]1([C@@H]2CSC(=O)N2)C[C@H]2C[C@@H](CC[C@H](C)/C=C\C=C\CC/C(C)=C\C(=O)O2)O1

>  <inhibition at 1 µM (%)>
21

$$$$
>  <smi>
CO[C@]1([C@@H]2CSC(=O)N2CCCO)C[C@H]2C[C@@H](CC[C@H](C)/C=C\C=C\CC/C(C)=C\C(=O)O2)O1

>  <inhibition at 1 µM (%)>
21

$$$$
>  <smi>
CO[C@]1([C@@H]2CSC(=O)N2C(=O)c2ccccc2)C[C@H]2C[C@@H](CC[C@H](C)/C=C\C=C\CC/C(C)=C\C(=O)O2)O1

>  <inhibition at 1 µM (%)>
53

$$$$

---

Biological target: pyrene-conjugated actin (Oryctolagus cuniculus, UniProt P68135)
Construct: purchased Cytoskeleton, Denver, Colo
Test: Pyrene actin polymerization assay
Type: biochemical
Settings: mean ± SEM, triplicate
measured quantity: IC50 (nM)

>  <compound>
CO[C@]1([C@@H]2CSC(=O)N2CCCO)C[C@H]2C[C@@H](CC[C@H](C)/C=C\C=C\CC/C(C)=C\C(=O)O2)O1 [Compound 8]

>  <lt gt eq>
=

>  <measured value>
8550

$$$$
>  <compound>
CO[C@]1([C@@H]2CSC(=O)N2C2CCCC2)C[C@H]2C[C@@H](CC[C@H](C)/C=C\C=C\CC/C(C)=C\C(=O)O2)O1 [Compound 7, 17-O-Methyl-N-cyclopentanelatrunculin A]

>  <lt gt eq>
=

>  <measured value>
1050

$$$$
>  <compound>
CO[C@]1([C@@H]2CSC(=O)N2)C[C@H]2C[C@@H](CC[C@H](C)/C=C\C=C\CC/C(C)=C\C(=O)O2)O1 [Compound 2, 17-O-Methyllatrunculin A]

>  <lt gt eq>
=

>  <measured value>
9230

$$$$
>  <compound>
CO[C@]1([C@@H]2CSC(=O)N2Cc2ccccc2)C[C@H]2C[C@@H](CC[C@H](C)/C=C\C=C\CC/C(C)=C\C(=O)O2)O1 [Compound 9, 17-O-Methyl-N-benzyllatrunculin A]

>  <lt gt eq>
=

>  <measured value>
333

$$$$
>  <compound>
COc1ccc(CC(=O)N2C(=O)SC[C@H]2[C@@]2(OC)C[C@H]3C[C@@H](CC[C@H](C)/C=C\C=C\CC/C(C)=C\C(=O)O3)O2)cc1 [Compound 11]

>  <lt gt eq>
>

>  <measured value>
10000

$$$$
>  <compound>
C/C1=C/C(=O)O[C@@H]2C[C@@H](CC[C@H](C)/C=C\C=C\CC1)O[C@@](O)([C@@H]1CSC(=O)N1)C2 [Compound 1, Latrunculin A, reference compound]

>  <lt gt eq>
=

>  <measured value>
284

$$$$
>  <compound>
CCN1C(=O)SC[C@H]1[C@@]1(O)C[C@H]2C[C@@H](CC[C@H](C)/C=C\C=C\CC/C(C)=C\C(=O)O2)O1 [Compound 12, N-Ethyllatrunculin A]

>  <lt gt eq>
=

>  <measured value>
283

$$$$
>  <compound>
CO[C@]1([C@@H]2CSC(=O)N2C(=O)c2ccccc2)C[C@H]2C[C@@H](CC[C@H](C)/C=C\C=C\CC/C(C)=C\C(=O)O2)O1 [Compound 10, 17-O-Methyl-N-benzoyllatrunculin A]

>  <lt gt eq>
=

>  <measured value>
834

$$$$
>  <compound>
C/C1=C/C(=O)O[C@@H]2C[C@@H](CC[C@H](C)/C=C\C=C\CC1)O[C@@](O)([C@@H]1CSC(=O)N1Cc1ccccc1)C2 [Compound 13, N-Benzyllatrunculin A]

>  <lt gt eq>
=

>  <measured value>
445

$$$$

---

IC50 reference
Target: pyrene-conjugated actin (Oryctolagus cuniculus, UniProt P68135)
Construct: purchased Cytoskeleton, Denver, Colo
Experiment: Pyrene actin polymerization assay
Type: biochemical
Details: mean ± SEM, triplicate
measured quantity: IC50

>  <compound>
CCN1C(=O)SC[C@H]1[C@@]1(OC)C[C@H]2C[C@@H](CC[C@H](C)/C=C\C=C\CC/C(C)=C\C(=O)O2)O1

>  <assayed system>
pyrene-conjugated actin (Oryctolagus cuniculus, UniProt P68135)

>  <measured quantity>
IC50

>  <measured value>
> 10000 nM

$$$$
>  <compound>
C/C1=C/C(=O)O[C@@H]2C[C@@H](CC[C@H](C)/C=C\C=C\CC1)O[C@@](O)([C@@H]1CSC(=O)N1CO)C2 [Compound 14, N-Hydroxymethyllatrunculin A]

>  <assayed system>
pyrene-conjugated actin (Oryctolagus cuniculus, UniProt P68135)

>  <measured quantity>
IC50

>  <measured value>
210 nM

$$$$
>  <compound>
CO[C@]1([C@@H]2CSC(=O)N2C)C[C@H]2C[C@@H](CC[C@H](C)/C=C\C=C\CC/C(C)=C\C(=O)O2)O1

>  <assayed system>
pyrene-conjugated actin (Oryctolagus cuniculus, UniProt P68135)

>  <measured quantity>
IC50

>  <measured value>
> 10000 nM

$$$$
>  <compound>
C/C1=C/C(=O)O[C@@H]2C[C@@H](CC[C@H](C)/C=C\C=C\CC1)O[C@@](OCCc1ccccc1)([C@@H]1CSC(=O)N1)C2

>  <assayed system>
pyrene-conjugated actin (Oryctolagus cuniculus, UniProt P68135)

>  <measured quantity>
IC50

>  <measured value>
184 nM

$$$$
>  <compound>
C/C1=C/C(=O)O[C@@H]2C[C@@H](CC[C@H](C)/C=C\C=C\CC1)O[C@@](OC(=O)c1ccccc1)([C@@H]1CSC(=O)N1)C2

>  <assayed system>
pyrene-conjugated actin (Oryctolagus cuniculus, UniProt P68135)

>  <measured quantity>
IC50

>  <measured value>
466 nM

$$$$

---

Target: pyrene-conjugated actin (Oryctolagus cuniculus, UniProt P68135)
Construct: purchased Cytoskeleton, Denver, Colo
Test: Pyrene actin polymerization assay
Type: biochemical
Settings: 100 nM; compared to vehicle control (DMSO); read-out: Actin polymerization inhibition (%) 100 nM
compounds and their reported inhibition at 0.1 µM

>  <compound>
C/C1=C/C(=O)O[C@@H]2C[C@@H](CC[C@H](C)/C=C\C=C\CC1)O[C@@](O)([C@@H]1CSC(=O)N1CO)C2 [Compound 14, N-Hydroxymethyllatrunculin A]

>  <assayed system>
pyrene-conjugated actin (Oryctolagus cuniculus, UniProt P68135)

>  <units symbol>
%

>  <inhibition at 0.1 µM>
35

$$$$
>  <compound>
CCN1C(=O)SC[C@H]1[C@@]1(O)C[C@H]2C[C@@H](CC[C@H](C)/C=C\C=C\CC/C(C)=C\C(=O)O2)O1

>  <assayed system>
pyrene-conjugated actin (Oryctolagus cuniculus, UniProt P68135)

>  <units symbol>
%

>  <inhibition at 0.1 µM>
32

$$$$
>  <compound>
C/C1=C/C(=O)O[C@@H]2C[C@@H](CC[C@H](C)/C=C\C=C\CC1)O[C@@](OCCc1ccccc1)([C@@H]1CSC(=O)N1)C2

>  <assayed system>
pyrene-conjugated actin (Oryctolagus cuniculus, UniProt P68135)

>  <units symbol>
%

>  <inhibition at 0.1 µM>
31

$$$$
>  <compound>
CCN1C(=O)SC[C@H]1[C@@]1(OC)C[C@H]2C[C@@H](CC[C@H](C)/C=C\C=C\CC/C(C)=C\C(=O)O2)O1

>  <assayed system>
pyrene-conjugated actin (Oryctolagus cuniculus, UniProt P68135)

>  <units symbol>
%

>  <inhibition at 0.1 µM>
0

$$$$
>  <compound>
CO[C@]1([C@@H]2CSC(=O)N2C(=O)c2ccccc2)C[C@H]2C[C@@H](CC[C@H](C)/C=C\C=C\CC/C(C)=C\C(=O)O2)O1

>  <assayed system>
pyrene-conjugated actin (Oryctolagus cuniculus, UniProt P68135)

>  <units symbol>
%

>  <inhibition at 0.1 µM>
17

$$$$
>  <compound>
C/C1=C/C(=O)O[C@@H]2C[C@@H](CC[C@H](C)/C=C\C=C\CC1)O[C@@](OC(=O)c1ccccc1)([C@@H]1CSC(=O)N1)C2

>  <assayed system>
pyrene-conjugated actin (Oryctolagus cuniculus, UniProt P68135)

>  <units symbol>
%

>  <inhibition at 0.1 µM>
23

$$$$
>  <compound>
CO[C@]1([C@@H]2CSC(=O)N2)C[C@H]2C[C@@H](CC[C@H](C)/C=C\C=C\CC/C(C)=C\C(=O)O2)O1

>  <assayed system>
pyrene-conjugated actin (Oryctolagus cuniculus, UniProt P68135)

>  <units symbol>
%

>  <inhibition at 0.1 µM>
6

$$$$
>  <compound>
CO[C@]1([C@@H]2CSC(=O)N2C)C[C@H]2C[C@@H](CC[C@H](C)/C=C\C=C\CC/C(C)=C\C(=O)O2)O1

>  <assayed system>
pyrene-conjugated actin (Oryctolagus cuniculus, UniProt P68135)

>  <units symbol>
%

>  <inhibition at 0.1 µM>
11

$$$$
>  <compound>
CO[C@]1([C@@H]2CSC(=O)N2Cc2ccccc2)C[C@H]2C[C@@H](CC[C@H](C)/C=C\C=C\CC/C(C)=C\C(=O)O2)O1

>  <assayed system>
pyrene-conjugated actin (Oryctolagus cuniculus, UniProt P68135)

>  <units symbol>
%

>  <inhibition at 0.1 µM>
33

$$$$
>  <compound>
C/C1=C/C(=O)O[C@@H]2C[C@@H](CC[C@H](C)/C=C\C=C\CC1)O[C@@](O)([C@@H]1CSC(=O)N1Cc1ccccc1)C2

>  <assayed system>
pyrene-conjugated actin (Oryctolagus cuniculus, UniProt P68135)

>  <units symbol>
%

>  <inhibition at 0.1 µM>
24

$$$$
>  <compound>
CO[C@]1([C@@H]2CSC(=O)N2C2CCCC2)C[C@H]2C[C@@H](CC[C@H](C)/C=C\C=C\CC/C(C)=C\C(=O)O2)O1

>  <assayed system>
pyrene-conjugated actin (Oryctolagus cuniculus, UniProt P68135)

>  <units symbol>
%

>  <inhibition at 0.1 µM>
20

$$$$
>  <compound>
COc1ccc(CC(=O)N2C(=O)SC[C@H]2[C@@]2(OC)C[C@H]3C[C@@H](CC[C@H](C)/C=C\C=C\CC/C(C)=C\C(=O)O3)O2)cc1

>  <assayed system>
pyrene-conjugated actin (Oryctolagus cuniculus, UniProt P68135)

>  <units symbol>
%

>  <inhibition at 0.1 µM>
0

$$$$
>  <compound>
CO[C@]1([C@@H]2CSC(=O)N2CCCO)C[C@H]2C[C@@H](CC[C@H](C)/C=C\C=C\CC/C(C)=C\C(=O)O2)O1

>  <assayed system>
pyrene-conjugated actin (Oryctolagus cuniculus, UniProt P68135)

>  <units symbol>
%

>  <inhibition at 0.1 µM>
0

$$$$
